Below, each entry is listed with its recorded pKi.
Molecular target: UniProt P09057
Sequence (P09057 whole entry): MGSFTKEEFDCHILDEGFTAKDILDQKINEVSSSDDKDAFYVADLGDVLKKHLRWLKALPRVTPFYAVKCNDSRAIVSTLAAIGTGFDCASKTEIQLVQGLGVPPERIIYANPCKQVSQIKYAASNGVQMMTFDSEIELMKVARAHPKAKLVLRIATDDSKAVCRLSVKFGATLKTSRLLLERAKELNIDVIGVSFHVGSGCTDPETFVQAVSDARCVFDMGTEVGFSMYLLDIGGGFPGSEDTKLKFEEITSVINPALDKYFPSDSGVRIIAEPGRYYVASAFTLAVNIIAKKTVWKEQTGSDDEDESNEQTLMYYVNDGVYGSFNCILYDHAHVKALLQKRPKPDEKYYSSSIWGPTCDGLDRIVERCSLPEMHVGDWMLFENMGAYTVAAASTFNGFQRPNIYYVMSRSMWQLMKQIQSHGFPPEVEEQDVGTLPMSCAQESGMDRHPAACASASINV
Experiment: Competitive inhibition of ornithine decarboxylase in rat HTC cells using DL-[1-14C]ornithine as substrate after 1 hr by dixon plot analysis
Assay type: cell-based
Conditions: read-out: Ki
Kindly note that pKi refers to -log10 of the concentration in mol/L and answer with the value alone.

Take a look at these entries with their results.
Molecule: N[C@H]1CC[C@](N)(C(=O)O)CC1
pKi: 4.15
--
Molecule: CC(N)(CCCN)C(=O)O (racemic)
pKi: 4.40

Given the entry NCCCC(N)c1nnn[nH]1 (stereo not given) , what pKi was observed with UniProt P09057?
3.85

Look up pKi with UniProt P09057 for this molecule: C[C@@](N)(CCCN)C(=O)O
2.98

Request: pKi, test system UniProt P09057, entry C[C@](N)(CCCN)C(=O)O
4.70
